Just for reference, ChEMBL document CHEMBL1125797 is where these values come from.

- Species on record: Rattus norvegicus
- PROCEDURE TEXT: The compound was tested for the plasma binding in rat
- Assay type: ADME, organism-based
PROPERTY LABEL: Plasma binding (%)

See these solved cases before continuing.
BIS(INDAN)TECHNETIUM ... 6.8
BIS(TETRAHYDROACENAPHTHENE) TECHNETIUM ... 27

1 = BIS(HEXAETHYLBENZENE) TECHNETIUM
2 = BIS(DODECAHYDROTRIPHENYLENE) TECHNETIUM
When 1 and 2 are compared, which has the higher number for Plasma binding? Give the label under which the chosen entry appears. 1
(1: 50%, 2: 34%)

1 = BIS(TRINDAN) TECHNETIUM
2 = BIS(HEXAMETHYLBENZENE)TECHNETIUM
Could you tell me which of these two has the smaller Plasma binding figure? First: 1 Second: 2 Could you answer with the label of the item you picked? 1
